Read-out: Urokinase-type plasminogen activator receptor (uPAR), PLAUR (gene 5329)
Experiment: BSK_CASM3C_uPAR: BioMAP Diversity Plus: CASM3C Assay for Urokinase-type plasminogen activator receptor (uPAR) Biomarker Activity (AID 2283054);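 note: cell-surface uPAR protein level quantified by ELISA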
Settings: primary human coronary artery smooth muscle cells; actives raise or lower the signal
Active and inactive are the calls of the source. Rule for the calls: active = hit-call score of the fitted dose curve at least 0.9, where 1 is the maximum; inactive = score below 0.9.
Your reply should match one of these outcome classes. t (active), f (inactive)

Solved entries:
[[record]]
compound = "CCSC(=O)N(CC)C1CCCCC1"
class_name = "f"

[[record]]
compound = "Clc1ccc(C(c2ccccc2Cl)C(Cl)(Cl)Cl)cc1 (stereo unspecified)"
class_name = "t"

[[record]]
compound = "Cc1cccc([N+](=O)[O-])c1"
class_name = "f"

[[record]]
compound = "CC(C)(c1ccccc1)c1ccc(O)cc1"
class_name = "f"

[[record]]
compound = "O=C(NC(=O)c1cc(F)c(F)cc1Cl)Nc1cc(F)ccc1N1CCC(C(=O)O)CC1"
class_name = "f"

[[record]]
compound = "C[C@]12CCC(=O)C=C1CC[C@@H]1[C@@H]2CC[C@@]2(C)[C@H]1CC[C@]2(C)O"
class_name = "f"

[[record]]
compound = "ClC1=C(Cl)[C@]2(Cl)[C@@H]3[C@@H](Cl)[C@H]4O[C@H]4[C@@H]3C1(Cl)C2(Cl)Cl"
class_name = "f"

[[record]]
compound = "CCCN(CCC)N=O"
class_name = "f"

[[record]]
compound = "CC1=C2C[C@H]3[C@@H](CC=C4C[C@@H](O)CC[C@@]43C)[C@@H]2CC[C@]12O[C@@H]1C[C@H](C)CN[C@H]1[C@H]2C"
class_name = "f"

[[record]]
compound = "O=C(N[C@H]1CN2CCC1CC2)c1cc2ccoc2cn1"
class_name = "f"


Task: Which outcome did this test record for the compound CCC(C)(CC)c1cc(NC(=O)c2c(OC)cccc2OC)on1 ?
Output: f

Task: Which outcome did this test record for the compound CC(C)C(=O)OCC(C)(C)C(OC(=O)C(C)C)C(C)C (stereo unspecified) ?
Output: f

Task: Which outcome did this test record for the compound Nc1ccc(-c2ccc(N)cc2)cc1 ?
Output: f

Task: Which outcome did this test record for the compound Clc1ccc(Cl)cc1 ?
Output: f

Task: Which outcome did this test record for the compound Clc1ccc(C(Cl)(Cl)Cl)cc1 ?
Output: f

Task: Which outcome did this test record for the compound CCOCCOC(C)=O ?
Output: f

Task: Which outcome did this test record for the compound O=S(=O)(O)C(F)(F)C(F)(F)C(F)(F)C(F)(F)C(F)(F)C(F)(F)F ?
Output: f

Task: Which outcome did this test record for the compound O=C(O)C(F)(F)C(F)(F)C(F)(F)C(F)(F)C(F)(F)C(F)(F)C(F)(F)C(F)(F)C(F)(F)F ?
Output: f

Task: Which outcome did this test record for the compound Cc1ccc(O)c(C)c1 ?
Output: f

Task: Which outcome did this test record for the compound Cc1cccc(C)c1N ?
Output: f

Task: Which outcome did this test record for the compound COc1ccc(O)c(C(C)(C)C)c1 ?
Output: f

Task: Which outcome did this test record for the compound C1CC2OC2CC1C1CO1 (stereo unspecified) ?
Output: f

Task: Which outcome did this test record for the compound Cc1cc(O)ccc1Cl ?
Output: f

---

Assay: CEETOX_H295R_11DCORT: CeeTox H295R High-throughput Steroidogenesis Assay for 11-Deoxycortisol (11DCORT) (AID 2283432)
Conditions: actives raise or lower the signal
Active and inactive are the calls of the source. The calls were made as follows: active = hit-call score of the fitted dose curve at least 0.9, where 1 is the maximum; inactive = score below 0.9.
Your reply should match one of these outcome classes. y for active, n for inactive

Solved entries:
[[record]]
compound_string = "O=C(NC(=O)c1c(F)cccc1F)Nc1cc(Cl)c(OC(F)(F)C(F)F)c(Cl)c1"
class_name = "n"

[[record]]
compound_string = "c1cc2ccc3cccc4ccc(c1)c2c34"
class_name = "y"

[[record]]
compound_string = "Cc1ccc(O)c(C)c1"
class_name = "n"

[[record]]
compound_string = "ClC1=C(Cl)[C@]2(Cl)[C@@H]3[C@H]4C[C@H]([C@@H]5O[C@H]45)[C@@H]3[C@@]1(Cl)C2(Cl)Cl"
class_name = "y"

[[record]]
compound_string = "C[C@]12CCC(=O)C=C1CC[C@@H]1[C@@H]2CC[C@@]2(C)[C@H]1CC[C@]2(C)O"
class_name = "y"

[[record]]
compound_string = "C=CC(N)=O"
class_name = "n"

[[record]]
compound_string = "CCOCCOC(C)=O"
class_name = "n"

[[record]]
compound_string = "Oc1ccc(Cl)cc1Cl"
class_name = "n"

[[record]]
compound_string = "CC#Cc1cc(C)nc(Nc2ccccc2)n1"
class_name = "n"

[[record]]
compound_string = "CCSC(=O)N(CC)C1CCCCC1"
class_name = "n"


Task: Which outcome did this test record for the compound CC1=C2C[C@H]3[C@@H](CC=C4C[C@@H](O)CC[C@@]43C)[C@@H]2CC[C@]12O[C@@H]1C[C@H](C)CN[C@H]1[C@H]2C ?
Output: n

Value source: PubChem BioAssay (EPA / NIEHS)
